For each entry below, report its MIC Enterococcus faecalis (GC 2691) value.
# System: Enterococcus sp.
# Assay text: In vitro antibacterial evaluation: minimum inhibitory concentration (MIC), broth dilution method
# Assay type: cell-based
# Experimental context: strain GC 2691
Note: unit µg/mL is implicit; provide only the numeric part.

MIC Enterococcus faecalis (GC 2691) of CC(C)=CCCC(C)=CCN=C1NCC(C(O)C2NC(=O)C(C(O)C3CNC(=N)N3)NC(=O)C(Cc3ccc(OC4OC(CO)C(OC5OC6COC7(OC6C(O)C5O)C5CC6CC(C5)CC7C6)C(O)C4O)cc3)NC(=O)C(C(C)c3ccccc3)NC(=O)CNC(=O)C(CO)NC2=O)N1C1OC(CO)C(O)C(O)C1O (stereo not shown) on Enterococcus sp.? 16

Continue with COc1cc(C2OCC3OC(OC4C(CO)OC(Oc5ccc(CC6NC(=O)C(C(C)c7ccccc7)NC(=O)CNC(=O)C(CO)NC(=O)C(C(O)C7CNC(=N)N7C7OC(CO)C(O)C(O)C7O)NC(=O)C(C(O)C7CNC(=N)N7)NC6=O)cc5)C(O)C4O)C(O)C(O)C3O2)ccc1[N+](=O)[O-] (stereo not shown) 8

Continue with CC(c1ccccc1)C1NC(=O)CNC(=O)C(CO)NC(=O)C(C(O)C2CNC(=N)N2C2OC(CO)C(O)C(O)C2O)NC(=O)C(C(O)C2CNC(=N)N2)NC(=O)C(Cc2ccc(OC3OC(CO)C(OC4OC5COC(c6cccc(Cl)c6)OC5C(O)C4O)C(O)C3O)cc2)NC1=O (stereo not shown) 8

Continue with CC(c1ccccc1)C1NC(=O)CNC(=O)C(CO)NC(=O)C(C(O)C2CNC(=N)N2C2OC(CO)C(O)C(O)C2O)NC(=O)C(C(O)C2CNC(=N)N2)NC(=O)C(Cc2ccc(OC3OC(CO)C(OC4OC5COC(c6cccc(Oc7ccccc7)c6)OC5C(O)C4O)C(O)C3O)cc2)NC1=O (stereo not shown) 4

Continue with CC(c1ccccc1)C1NC(=O)CNC(=O)C(CO)NC(=O)C(C(O)C2CNC(=N)N2C2OC(CO)C(O)C(O)C2O)NC(=O)C(C(O)C2CNC(=N)N2)NC(=O)C(Cc2ccc(OC3OC(CO)C(OC4OC5COC(c6cccc(-c7ccccc7)c6)OC5C(O)C4O)C(O)C3O)cc2)NC1=O (stereo not shown) 2

Continue with CC(c1ccccc1)C1NC(=O)CNC(=O)C(CO)NC(=O)C(C(O)C2CN(Cc3ccccc3)C(=NCc3ccccc3)N2C2OC(CO)C(O)C(O)C2O)NC(=O)C(C(O)C2CN(Cc3ccccc3)C(=NCc3ccccc3)N2Cc2ccccc2)NC(=O)C(Cc2ccc(OC3OC(CO)C(OC4OC5COC6(OC5C(O)C4O)C4CC5CC(C4)CC6C5)C(O)C3O)cc2)NC1=O (stereo not shown) 8

* * *

# System: Enterococcus sp.
# Assay text: In vitro antibacterial evaluation: minimum inhibitory concentration (MIC), broth dilution method
# Format: cell-based
# Experimental context: Enterococcus faecalis (GC 3059); broth dilution, 18 hours at 35° C.
# Text: […]
Numbered stars: 1 amine (or outer) side, 2 acyl side, 3 side chain; on linkers, the order of the positions; unused ones are H or OH. Square brackets hold non-standard residues; d marks the D form. Peptide text beside a SMILES is read from it. ξ: configuration not given here. X1 = N=C1NCC(C(O)C(N[*:1])C(=O)[*:2])N1C1OC(CO)C(O)C(O)C1O; ξEnduracididine(βξ-OH,4'ξ) = N=C1NCC(C(O)C(N)C(=O)O)N1; ξCha(3ξ-Me) = CC(C1CCCCC1)C(N)C(=O)O; Cha = N[CH](CC1CCCCC1)C(=O)O
For each entry below, report its MIC Enterococcus faecalis (GC 3059) value.
Note: unit µg/mL is implicit; provide only the numeric part.

# input compound: COc1cc(-c2nc3cc(CC4NC(=O)C(C(C)c5ccccc5)NC(=O)CNC(=O)C(CO)NC(=O)C(C(O)C5CNC(=N)N5C5OC(CO)C(O)C(O)C5O)NC(=O)C(C(O)C5CNC(=N)N5)NC4=O)ccc3o2)cc(OC)c1OC (centres unmarked) ; wanted: its MIC Enterococcus faecalis (GC 3059) 32

Continue with CC(c1ccccc1)C1NC(=O)CNC(=O)C(CO)NC(=O)C(C(O)C2CNC(=N)N2C2OC(CO)C(O)C(O)C2O)NC(=O)C(C(O)C2CNC(=N)N2)NC(=O)C(Cc2ccc3oc(-c4ccc(Br)cc4)nc3c2)NC1=O (centres unmarked) 32

Continue with CC(c1ccccc1)C1NC(=O)CNC(=O)C(CO)NC(=O)C(CC2CN(Cc3ccccc3)C(=N)N2C2OC(CO)C(O)C(O)C2O)NC(=O)C(CC2CNC(=N)N2)NC(=O)C(Cc2ccc(OC3OC(CO)C(OC4OC5COC6(OC5C(O)C4O)C4CC5CC(C4)CC6C5)C(O)C3O)cc2)NC1=O (centres unmarked) 64

Continue with CC(c1ccccc1)C1NC(=O)CNC(=O)C(CO)NC(=O)C(C(O)C2CNC(=N)N2C2OC(CO)C(O)C(O)C2O)NC(=O)C(C(O)C2CNC(=N)N2)NC(=O)C(Cc2ccc3oc(SCc4ccc(-c5ccccc5)cc4)nc3c2)NC1=O (centres unmarked) 32

Continue with CC(c1ccccc1)C1NC(=O)CNC(=O)C(CO)NC(=O)C(C(O)C2CNC(=N)N2C2OC(CO)C(O)C(O)C2O)NC(=O)C(C(O)C2CNC(=N)N2)NC(=O)C(Cc2ccc3oc(-c4ccc(N(C)C)cc4)nc3c2)NC1=O (centres unmarked) 64

Continue with CC(C1CCCCC1)C1NC(=O)CNC(=O)C(CO)NC(=O)C(C(O)C2CNC(=N)N2C2OC(CO)C(O)C(O)C2O)NC(=O)C(C(O)C2CNC(=N)N2)NC(=O)C(CC2CCCCC2)NC1=O (stereo not drawn) [Example 53] (cyclo(G[ξCha(3ξ-Me)][Cha][ξEnduracididine(βξ-OH,4'ξ)][X1]S); configuration not given here) 8

Continue with CC(c1ccccc1)C1NC(=O)CNC(=O)C(CO)NC(=O)C(C(O)C2CN(Cc3ccccc3)C(=NCc3ccccc3)N2C2OC(CO)C(O)C(O)C2O)NC(=O)C(C(O)C2CN(Cc3ccccc3)C(=NCc3ccccc3)N2Cc2ccccc2)NC(=O)C(Cc2ccc(OC3OC(CO)C(OC4OC5COC6(OC5C(O)C4O)C4CC5CC(C4)CC6C5)C(O)C3O)cc2)NC1=O (centres unmarked) 32

Continue with CC(c1ccccc1)C1NC(=O)CNC(=O)C(CO)NC(=O)C(C(O)C2CNC(=N)N2C2OC(CO)C(O)C(O)C2O)NC(=O)C(C(O)C2CNC(=N)N2)NC(=O)C(Cc2ccc3oc(SCC(=O)c4ccccc4)nc3c2)NC1=O (centres unmarked) 64
